- tested_system: Ubiquitin-conjugating enzyme E2 N (Homo sapiens) (UniProt P61088)
- Sequence (P61088 whole entry, looked up): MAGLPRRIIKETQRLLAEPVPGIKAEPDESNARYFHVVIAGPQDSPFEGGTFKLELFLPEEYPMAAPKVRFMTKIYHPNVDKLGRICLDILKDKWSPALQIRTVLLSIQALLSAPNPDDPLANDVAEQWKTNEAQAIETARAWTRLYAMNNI
- protocol_notes: UBE2N binders by NMR, biophysical, purified protein (AID 1552)
- condition: NMR binding to purified UBE2N
Activity calls are given as the source filed them. No rule for the calls is given here.
readout: Kd

• NCc1ccc(S(N)(=O)=O)cc1 = > 4 mM (inactive)
• NC(=O)CC1Nc2cccc3cccc(c23)NC1=O (configuration not stated) = > 4 mM (inactive)
• O=C(O)CCCCCCCC(=O)O = > 4 mM (inactive)
• COc1ccc(Cc2nnc3c4cnn(C)c4ncn23)cc1 = > 4 mM (inactive)
• O=C(Nc1c[nH]c(=O)[nH]c1=O)c1ccccc1F = > 4 mM (inactive)
• Cc1nc(-c2ccc(C(=O)O)s2)cs1 = > 4 mM (inactive)
• Cc1onc(-c2ccccc2)c1CO = > 4 mM (inactive)
• NC1=NC(=O)C(Cc2cccc([N+](=O)[O-])c2)S1 (configuration not stated) = > 4 mM (inactive)
• Cc1noc(C)c1C(=O)Nc1cccnc1 = > 4 mM (inactive)
• CS(=O)(=O)N/N=C/c1cccs1 = > 4 mM (inactive)
• Cn1c(=O)c2c(ncn2C)n(C)c1=O = > 4 mM (inactive)
• C[C@@H]1CCC2[C@](C)(CO)[C@@H](O)CC[C@]2(C)[C@@]12CC[C@@](CO)(CCO)O2 (some centres not stated) = > 4 mM (inactive)
• CCn1cnc2cc([N+](=O)[O-])ccc2c1=O = > 4 mM (inactive)
• CCCc1nc2ccccc2c2nc(N)nn12 = > 4 mM (inactive)
• CN(C)CC(O)C1CCOC(C)(C)C1 (configuration not stated) = > 4 mM (inactive)
• COC(=O)C1[C@H]2C[C@H]3c4[nH]c5ccccc5c4CCN3C[C@@H]2CC[C@@H]1O (some centres not stated) = > 4 mM (inactive)
• Cc1ccc(NC(=O)CN2C(=O)CSC2=O)cc1 = > 4 mM (inactive)
• Nc1cccc(-n2cnnn2)c1 = > 4 mM (inactive)
• CCOC(=O)c1ccc(F)c(F)c1 = > 4 mM (inactive)
• Cc1cc(NC(=O)c2ccc3c(c2)OCO3)no1 = > 4 mM (inactive)
• CCn1c(=O)cc(N2CCC3(CC2)OCCO3)[nH]c1=O = > 4 mM (inactive)
• CC(=O)c1ccc(NC(=S)N2CCC(O)CC2)cc1 = > 4 mM (inactive)
• COCc1cc(C)nc2sc(C(=O)OC)c(N)c12 = > 4 mM (inactive)
• CSc1nc2nc(C)cc(=O)n2[nH]1 = > 4 mM (inactive)
• COc1ccc(-c2oc3ccccc3c(=O)c2O)cc1OC = > 4 mM (inactive)
• O=C(c1ccco1)N1C(=O)c2cccc3cccc1c23 = > 4 mM (inactive)
• OC[C@H]1O[C@@H](Oc2ccc(O)cc2)[C@H](O)[C@@H](O)[C@@H]1O = > 4 mM (inactive)

Reference for the values: PubChem BioAssay AID1552
